# System: HOP-62 NSCLC
# METHOD NOTES: NCI-60 one-dose screen, 48 h (100 = growth as untreated, 0 = no growth, -100 = all killed)
# ASSAY CONTEXT: 10 µM unless noted
Compounds without any hit were thinned out: in the full panel of roughly 83,000, 20% have a hit.
MEASUREMENT NAME: growth (%)
Entry rule: numbers only, all in %.

Inquiry: What growth value was documented for this molecule, `CCCCCCCCn1ccc2cc(NC(=O)CN3CCN(c4cc(C)nc(Cl)n4)CC3)ccc21` ?
Reply text: 119

Inquiry: What value of measured growth is listed for `CCN(CC)c1ccc(-c2cc(-c3cc(OC)c(OC)c(OC)c3)nc(N3CCC(O)CC3)c2C#N)cc1` ?
Reply text: 17.9

Inquiry: Using the record for `C=C1SC(=Nc2ccccc2Cl)N(C(=O)c2sc3ccccc3c2Cl)C1(C)C` , report its growth.
Reply text: 54.8

====

# System: SK-MEL-28 melanoma
# METHOD NOTES: NCI-60 one-dose screen, 48 h (100 = growth as untreated, 0 = no growth, -100 = all killed)
# ASSAY CONTEXT: 10 µM unless noted
Compounds without any hit were thinned out: in the full panel of roughly 83,000, 20% have a hit.
The entries below are paired with their reported growth.
Unit % implied. Number only.

1) CCn1cc(C(=O)O)c(=O)c2cc(F)c(N3CCN(CC(=O)Nc4ccccc4)C(C)C3)c(F)c21 (stereo not drawn)    97
2) O=C(NCCCCO)c1cncnc1Nc1ccc2c(ccn2Cc2cccc(F)c2)c1    100

Attention now shifts to the item below.
Inquiry: Need growth of `N#CSc1c[nH]c2ccc(/C=C/C(=O)/C=C(O)/C=C/c3ccc4[nH]cc(SC#N)c4c3)cc12` , thanks.
Reply text: 31.8

====

# Tested on: MDA-MB-231 breast
# METHOD NOTES: NCI-60 one-dose screen, 48 h (100 = growth as untreated, 0 = no growth, -100 = all killed)
# ASSAY CONTEXT: 10 µM unless noted
Compounds without any hit were thinned out: in the full panel of roughly 83,000, 20% have a hit.
Entries and their growth values follow.
The figure you give is taken to be in %; do not add the unit.

1) Cc1cn(C)cn1    112

Inquiry: Need growth of `COc1cc(Cc2cc(-c3ccccc3)nn(Cc3ccccc3)c2=O)cc(OC)c1OC` , thanks.
Reply text: 50.1

Inquiry: If you can, please state the reported growth value of `O=C(Nc1nc(Cl)nc(Nc2ccc(N3CCOCC3=O)cc2)n1)c1ccc(Cl)s1` .
Reply text: 88.3

Inquiry: Any idea what its growth is? The molecule is `Cc1c(C(C)(C)O)cn2ncnc(Oc3ccc(NC(=O)Nc4ccc(Cl)c(C(F)(F)F)c4)c(F)c3)c12`
Reply text: 73.3

Inquiry: State the recorded growth for this entry: `COc1cc([C@@H](CCO)C[C@H](C)c2ccc3ccccc3c2)cc(OC)c1OC`
Reply text: 43.8

Inquiry: What measured growth goes with `CCOC(=O)NC(=S)n1oc(=O)c2ccccc21` ?
Reply text: 96.8

Inquiry: What value of growth has been recorded for this entry: `CN(C)C1CN(C(=O)c2cc(-c3ccc4ncnc(N5CCc6cc(F)c(Cl)cc65)c4c3)cnc2N)C1`
Reply text: 27.8

Inquiry: Would you kindly share the measured growth for `Cc1ccc(Cc2cnc(NC(=O)/C=C/c3ccc(C)o3)s2)cc1` ?
Reply text: 67.9

====

# Tested on: SR leukemia
# METHOD NOTES: NCI-60 one-dose screen, 48 h
# ASSAY CONTEXT: 10 µM unless noted
The panel holds about 83,000 compounds, 20% with a hit somewhere; the sample as a whole holds those more often. Active and inactive are the calls of the source. The calls were made as follows: active = growth percent below 10; inactive = the rest.
Your answer must be one of the following: active, inactive

Below, 4 compounds whose answers are already recorded.
1) CCCC(=O)NC(c1ccc2c(c1)OCO2)c1cc(Cl)c2cccnc2c1O (centres undefined)    inactive
2) CCCCCCCCn1ccc2cc(NC(=O)CN=[N+]=[N-])ccc21    inactive
3) O=C(/C=C/C12c3ccccc3C(c3ccccc31)C1C(=O)NC(=O)C12)c1ccc(Cl)cc1Cl (centres undefined)    active
4) C#CCOc1ccc2nc(CCl)c(Cl)c(Nc3cccc(C(F)(F)F)c3)c2c1    inactive

Inquiry: Name the outcome recorded for `O=c1ccc2ccc(OCCN3CCCCC3)cc2o1` in the assay.
Reply text: active

Inquiry: Look up the recorded call for COc1ccc(/C=C/C(c2cc(OC)c(OC)c(OC)c2)n2cncn2)cc1O (centres undefined) in this test.
Reply text: active

Inquiry: So what was the verdict on `COc1ccc(/C=C2\CN(C(=O)C(Cl)Cl)C/C(=C\c3ccc(OC)c(OC)c3)C2=O)cc1OC` in this test?
Reply text: active

Inquiry: # outcome recorded in this test, key = O=S(Nc1ccccc1)c1ccc(Cl)cc1 (centres undefined)
Reply text: inactive

Inquiry: I'd appreciate the recorded outcome for Cc1oc(-c2ccc(Cl)cc2)nc1C1=NN(C(=O)c2ccncc2)C(c2ccccc2)C1 (centres undefined) from this test.
Reply text: inactive

====

# Tested on: UACC-62 melanoma
# METHOD NOTES: NCI-60 one-dose screen, 48 h
# ASSAY CONTEXT: 10 µM unless noted
About 83,000 compounds went through this panel and 20% of them were active in at least one assay; those are over-represented in the sample as a whole. Activity calls are given as the source filed them. The calls were made as follows: active = growth percent below 10; inactive = the rest.
# output must be one of class 1 for active, class 0 for inactive

1. O=C1NC(=O)C(c2coc3cc(Br)ccc23)=C1c1c[nH]c2ccccc12    class 0
2. CCCCO[C@@H]1C=C2[C@H]3CC(C)(C)C(=O)C[C@]3(C(=O)O[C@@H]3O[C@H](CO[C@@H]4O[C@H](CO)[C@@H](OC5OC(C)C(O)C(O)C5O)[C@H](O)[C@H]4O)[C@@H](O)[C@H](O)[C@H]3O)CC[C@@]2(C)[C@]2(C)CC[C@H]3C(C)(C)C(=O)CC[C@]3(C)[C@@H]12 (some centres undefined)    class 0
3. CCOC(=O)c1c(C)nc2ccccc2c1/C=C/c1ccc(F)cc1    class 0

Inquiry: Dear all, I need the recorded test outcome for COC12C=C/C(=C(/C(=O)OCc3csc(SC)n3)C(=O)CCCCCCCCC3(OC)C=C/C(=C(/C(=O)OCc4cnc(SC)s4)C(=O)CCCCCCCC1)O3)O2 (centres undefined) , thank you.
Reply text: class 1

Inquiry: Which outcome was entered for the compound `COC(=O)c1c2c(c[n+]([O-])c1C)C(=O)C=C(NCc1ccccc1)C2=O` in this test?
Reply text: class 1

Inquiry: Per the assay record, what outcome was assigned to `O=C(C1=Cc2cc3ccccc3n2Cc2cnnn21)c1ccc(F)cc1` ?
Reply text: class 0

Inquiry: Dear colleague, could you share the recorded outcome for `COc1ccc2cc(-c3nc4ccc(C)cn4c3NCc3ccco3)c(=O)[nH]c2c1` when you have a moment?
Reply text: class 0

Inquiry: Each compound tested received a call. Report the one for `c1cc(OCCN2CCCC2)ccc1CNc1ccc2nc(CCC3CCCCC3)[nH]c2c1` .
Reply text: class 0

Inquiry: // outcome(item) with item = `CC(C)(Sc1cc(C(C)(C)C)c(O)c(C(C)(C)C)c1)Sc1cc(C(C)(C)C)c(OC(=O)CCC(=O)O)c(C(C)(C)C)c1`
Reply text: class 1

Inquiry: In this assay, the call recorded for `O=C(O)c1cn(C2CC2)c2cc(N3CCN(C(=O)N/N=C/c4cccc5ccccc45)CC3)c(F)cc2c1=O` was what?
Reply text: class 0

Inquiry: Just curious, what result did `CCOc1ccc(/C=C/C(=O)c2cccc(OCCCOc3cccc(C(=O)/C=C/c4ccc(OCC)cc4)c3)c2)cc1` get here?
Reply text: class 0

Inquiry: What is the recorded call for this compound in the test? `CN(C)c1ccc(/C=C2\C=C(c3nc4ccccc4s3)OC2=O)cc1`
Reply text: class 0

Inquiry: For this compound, state the assay outcome: `Cc1cn(C)cn1`
Reply text: class 0

====

# Tested on: LOX IMVI melanoma
# METHOD NOTES: NCI-60 one-dose screen, 48 h (100 = growth as untreated, 0 = no growth, -100 = all killed)
# ASSAY CONTEXT: 10 µM unless noted
This is part of a sample that, as a whole, favours compounds with a hit. Of some 83,000 tested, about 20% had one in any assay.
Below is a list of entries, each paired with its recorded growth value.
# number only, unit % dropped from output

Solved entries (count: 2):
1) c1cc(OCCCCCOc2cccc(-c3nc4ccccc4[nH]3)c2)cc(-c2nc3ccccc3[nH]2)c1    -27.8
2) ClC(Cl)c1nc(-c2ccccc2)n2nc(-c3ccccc3)cc2n1    72.1

Alright, here's another compound for you.
Inquiry: What growth appears in the records for this compound with LOX IMVI melanoma? `Oc1ccc(-c2nc3ccc4[nH]ncc4c3c3c2CCCC3)c(F)c1`
Reply text: 27.8

====

# System: MDA-MB-231 breast
# METHOD NOTES: NCI-60 one-dose screen, 48 h (100 = growth as untreated, 0 = no growth, -100 = all killed)
# ASSAY CONTEXT: 10 µM unless noted
The panel holds about 83,000 compounds, 20% with a hit somewhere; the sample as a whole holds those more often.
Output True for records whose growth is lower than 60%, False for records at or above 60%.

Inquiry: Answer whether the compound `S=c1ccnc[nH]1` has growth strictly less than 60%
Reply text: False

Inquiry: I wonder whether `O=C(Nc1cccnc1Nc1ccc(Cl)cc1)c1cn(Cc2cccc(Oc3ccccc3)c2)nn1` has growth below 60%. Can you tell?
Reply text: True

Inquiry: Report whether reported growth is lower than 60% (strictly) for `C=C1C(=O)O[C@H]2[C@H]1CC/C(COC(=O)NCc1ccc(Cn3c(=O)sn(-c4ccccc4)c3=O)cc1)=C\CC[C@@]1(C)O[C@@H]21`
Reply text: True

Inquiry: Bench note: check whether `C/C(=N\Nc1ccccc1)c1ccc(NC2=CC(=O)c3ccccc3C2=O)cc1` shows growth below 60%
Reply text: False

Inquiry: Determine if `NCCCNc1nc2ccccc2c2c(=O)c3cc(Cl)ccc3sc12` shows growth strictly lower than 60%.
Reply text: True
